# reported total protein half-life in vivo; entries follow
experimentalDetails: total protein half-life in vivo (active degradation + dilution); higher = more stable protein
runParameters: wild type E. coli NCM3722; growth: P-lim chemostat; doubling time 12 h
Give just the numeric value; h need not be written.

Which total protein half-life in vivo value belongs to MNTLTFLLSTVIELYTMVLLLRIWMQWAHCDFYNPFSQFVVKVTQPIIGPLRRVIPAMGPIDSASLLVAYILSFIKAIVLFKVVTFLPIIWIAGLLILLKTIGLLIFWVLLVMAIMSWVSQGRSPIEYVLIQLADPLLRPIRRLLPAMGGIDFSPMILVLLLYVINMGVAEVLQATGNMLLPGLWMAL ?
8.69

New cases:
Which total protein half-life in vivo value belongs to MTISELLQYCMAKPGAEQSVHNDWKATQIKVEDVLFAMVKEVENRPAVSLKTSPELAELLRQQHSDVRPSRHLNKAHWSTVYLDGSLPDSQIYYLVDASYQQAVNLLPEEKRKLLVQL [P0AF50] ?
9.9
